Recorded IC50 values (Acetylcholinesterase (Homo sapiens)) are given below.
Hey, just the number and the unit after it is fine.

Use these answered entries as a reference point.
{"compound": "CC1(C)CNC2=C([N+](=O)[O-])C3(C(=O)Nc4ccc(F)cc43)C(C#N)=C(N)N2C1 (centres undefined)", "IC50": "1070 nM"}
{"compound": "N#CC1=C(N)N2CCCNC2=C([N+](=O)[O-])C12C(=O)Nc1ccc([N+](=O)[O-])cc12 (centres undefined)", "IC50": "1150 nM"}
{"compound": "N#CC1=C(N)N(Cc2ccccc2)C(NCc2ccccc2)=C([N+](=O)[O-])C12C(=O)c1ccc(Br)c3c(Br)ccc2c13 (centres undefined)", "IC50": "6240 nM"}

Query compound follows.
Using the record for N#CC1=C(N)N2CCCNC2=C([N+](=O)[O-])C12C(=O)Nc1ccccc12 (centres undefined) , state its measured IC50. 1020 nM

====

Recorded pIC50 values (Cholinesterase (Homo sapiens, UniProt P06276)) are given below.
Give bare numbers, as −log10 of the molar value.

Use these answered entries as a reference point.
{"compound": "CC1(C)CNC2=C([N+](=O)[O-])C3(C(=O)c4ccc(Br)c5c(Br)ccc3c45)C(C#N)=C(N)N2C1 (stereo unspecified)", "assayValue": 4.62}
{"compound": "N#CC1=C(N)N2CCCNC2=C([N+](=O)[O-])C12C(=O)c1ccc(Br)c3c(Br)ccc2c13 (stereo unspecified)", "assayValue": 4.61}
{"compound": "N#CC1=C(N)N2CCCNC2=C([N+](=O)[O-])C12C(=O)Nc1ccc([N+](=O)[O-])cc12 (stereo unspecified)", "assayValue": 4.91}

Need pIC50 for each of these compounds.
1. N#CC1=C(N)N(Cc2ccccc2)C(NCc2ccccc2)=C([N+](=O)[O-])C12C(=O)c1ccc(Br)c3c(Br)ccc2c13 (stereo unspecified)
2. Cc1ccc2c(c1)C1(C(=O)N2)C(C#N)=C(N)N2CCCNC2=C1[N+](=O)[O-] (stereo unspecified)
3. N#CC1=C(N)N2CCNC2=C([N+](=O)[O-])C12C(=O)Nc1ccc(F)cc12 (stereo unspecified)

1: 4.58; 2: 4.91; 3: 4.77

Need pIC50 for each of these compounds.
1. N#CC1=C(N)N2CCNC2=C([N+](=O)[O-])C12C(=O)c1cccc3cccc2c13 (stereo unspecified)
2. N#CC1=C(N)N2CCNC2=C([N+](=O)[O-])C12C(=O)Nc1ccc([N+](=O)[O-])cc12 (stereo unspecified)
3. N#CC1=C(N)N2CCNC2=C([N+](=O)[O-])C12C(=O)c1ccc(Br)c3c(Br)ccc2c13 (stereo unspecified)
4. Cc1ccc2c(c1)C1(C(=O)N2)C(C#N)=C(N)N(Cc2ccccc2)C(NCc2ccccc2)=C1[N+](=O)[O-] (stereo unspecified)
5. N#CC1=C(N)N(Cc2ccccc2)C(NCc2ccccc2)=C([N+](=O)[O-])C12C(=O)Nc1ccccc12 (stereo unspecified)
6. Cc1ccc2c(c1)C1(C(=O)N2)C(C#N)=C(N)N2CCNC2=C1[N+](=O)[O-] (stereo unspecified)

1: 4.62; 2: 4.85; 3: 4.58; 4: 4.87; 5: 4.82; 6: 4.79

Need pIC50 for each of these compounds.
1. CC1(C)CNC2=C([N+](=O)[O-])C3(C(=O)c4cccc5cccc3c45)C(C#N)=C(N)N2C1 (stereo unspecified)
2. Cc1ccc2c(c1)C1(C(=O)N2)C(C#N)=C(N)N2CC(C)(C)CNC2=C1[N+](=O)[O-] (stereo unspecified)
3. N#CC1=C(N)N2CCCNC2=C([N+](=O)[O-])C12C(=O)c1cccc3cccc2c13 (stereo unspecified)

1. 4.59
2. 4.83
3. 4.58

Using the record for N#CC1=C(N)N2CCCNC2=C([N+](=O)[O-])C12C(=O)Nc1ccc(F)cc12 (stereo unspecified) , state its measured pIC50. 4.83

Data provenance is ChEMBL document CHEMBL3763108.
